Item-by-item account of degree of growth control, AM
Tested on: slender amaranth (Amaranthus viridis)
Experiment: Test Example 1: foliar application pot test, visual growth control rating
Assay type: in vivo
Settings: 1.25 g/a active ingredient, wettable powder, observed 20 to 31 days after application
API note: the answer field is a bare number with no unit suffix.

In [3]: df
Out[3]:
                                   molecule                        subject_of_test  numeric_value
0  CCN(c1cccc(S(=O)(=O)NC(=O)Nc2nc(OC)nc(OC)n2)n1)S(=O)(=O)C(C)Cl (racemic) [Compound No. 55]  slender amaranth (Amaranthus viridis)              6
1  CCS(=O)(=O)N(c1cccc(S(=O)(=O)NC(=O)Nc2nc(C)nc(OC)n2)n1)C(C)C [compound 6]  slender amaranth (Amaranthus viridis)              9
2  CCN(c1cccc(S(=O)(=O)NC(=O)Nc2nc(C)nc(OC)n2)n1)S(=O)(=O)CC [compound 37]  slender amaranth (Amaranthus viridis)              9

Now turn to the next molecule.
// degree of growth control, AM lookup, key: CCN(c1cccc(S(=O)(=O)NC(=O)Nc2nc(C)nc(OC)n2)n1)S(=O)(=O)C(C)C [Compound No. 1]
10
